melting point values, listed per item

Observe how each entry below is paired with its result.
[
  {
    "Compound": "CC(C)[C@@H](NS(=O)(=O)c1ccc(-c2nnn(-c3ccc(Br)cc3)n2)cc1)C(=O)O (hydrate or solvate) [Example 225]",
    "melting point": "227 to 228 °C"
  },
  {
    "Compound": "O=C(O)C(Cc1cccc2ccccc12)NS(=O)(=O)c1ccc(-c2nnn(-c3ccccc3)n2)cc1 (stereo not drawn) (hydrate or solvate) [Example 218]",
    "melting point": "225 to 227 °C"
  },
  {
    "Compound": "COc1ccc(C(=O)Nc2ccc(S(=O)(=O)N[C@H](Cc3c[nH]c4ccccc34)C(=O)O)cc2)cc1 (hydrate or solvate) [Example 178]",
    "melting point": "233 to 234 °C"
  },
  {
    "Compound": "CCC(C)[C@@H](NS(=O)(=O)c1ccc(-c2nnn(-c3ccccc3)n2)cc1)C(=O)O (stereo partly drawn) [Example 221]",
    "melting point": "205 to 207 °C"
  },
  {
    "Compound": "CSc1ccc(C(=O)Nc2ccc(S(=O)(=O)N[C@H](Cc3ccccc3)C(=O)O)cc2)cc1 [Example 191]",
    "melting point": "232 to 235 °C"
  }
]

Query :: Need melting point, item CC(C)[C@H](C(=O)O)N(C)S(=O)(=O)c1ccc(-c2nnn(-c3ccccc3)n2)cc1 [Example 256]
Result :: 206 to 207 °C

Query :: Can you share its melting point? I mean this compound: Cc1ccc(-n2nnc(-c3ccc(S(=O)(=O)N[C@H](Cc4c[nH]c5ccccc45)C(=O)O)cc3)n2)cc1 (hydrate or solvate) [Example 241]
Result :: 199 to 201 °C

Query :: // melting point lookup, key: Cc1ccc(-n2nnc(-c3ccc(S(=O)(=O)N[C@H](Cc4ccccc4)C(=O)O)cc3)n2)cc1 (hydrate or solvate) [Example 233]
Result :: 226 to 227 °C
